- system-name: hERG (Homo sapiens, UniProt Q12809)
- Construct: purchased Invitrogen PV5365
- Sequence (Q12809 whole entry): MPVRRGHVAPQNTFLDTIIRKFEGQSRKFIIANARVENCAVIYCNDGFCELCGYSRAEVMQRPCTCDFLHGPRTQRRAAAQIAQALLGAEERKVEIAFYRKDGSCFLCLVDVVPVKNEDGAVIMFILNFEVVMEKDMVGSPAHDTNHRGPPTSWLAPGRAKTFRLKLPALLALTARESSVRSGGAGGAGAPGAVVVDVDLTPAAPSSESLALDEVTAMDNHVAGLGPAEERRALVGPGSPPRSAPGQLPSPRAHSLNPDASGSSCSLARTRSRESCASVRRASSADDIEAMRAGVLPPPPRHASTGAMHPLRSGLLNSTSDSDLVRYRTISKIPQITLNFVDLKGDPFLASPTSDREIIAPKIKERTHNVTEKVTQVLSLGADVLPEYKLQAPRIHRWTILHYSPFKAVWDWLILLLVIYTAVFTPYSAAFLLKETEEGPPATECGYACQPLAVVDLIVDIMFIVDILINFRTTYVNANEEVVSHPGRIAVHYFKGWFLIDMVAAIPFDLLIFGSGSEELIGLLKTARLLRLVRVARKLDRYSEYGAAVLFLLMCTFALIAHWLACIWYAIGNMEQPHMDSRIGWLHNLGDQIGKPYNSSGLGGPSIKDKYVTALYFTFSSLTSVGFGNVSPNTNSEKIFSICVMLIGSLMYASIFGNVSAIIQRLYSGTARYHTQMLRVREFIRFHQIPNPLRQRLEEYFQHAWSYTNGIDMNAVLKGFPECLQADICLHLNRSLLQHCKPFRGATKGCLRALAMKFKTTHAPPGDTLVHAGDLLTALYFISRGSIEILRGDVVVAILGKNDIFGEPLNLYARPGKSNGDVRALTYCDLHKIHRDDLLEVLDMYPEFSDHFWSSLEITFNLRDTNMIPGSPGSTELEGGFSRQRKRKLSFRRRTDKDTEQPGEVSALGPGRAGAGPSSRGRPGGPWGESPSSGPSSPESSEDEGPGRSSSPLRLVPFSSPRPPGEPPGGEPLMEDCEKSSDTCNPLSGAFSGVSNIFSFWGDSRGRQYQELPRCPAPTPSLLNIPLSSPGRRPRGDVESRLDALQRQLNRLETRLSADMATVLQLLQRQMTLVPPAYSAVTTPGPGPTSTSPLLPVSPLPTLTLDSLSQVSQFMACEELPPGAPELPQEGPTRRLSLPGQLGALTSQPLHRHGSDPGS
- assay-protocol: hERG inhibition test (Predictor hERG Fluorescence Polarization assay kit)
- Format: binding
- measurement-context: probe kit Tracer (fluorescent hERG ligand), hERG % inhibition at 10 uM, relative to E-4031 and solvent control
The entries below are paired with their reported inhibition at 2.5 h, 10 µM.
Please reply with the bare figure in % and do not write the unit itself.

molecule	inhibition at 2.5 h, 10 µM / %
N#Cc1ccc(COc2cc(-c3ccc(Cc4nc5ccc(C(=O)O)cc5n4CC4CCCO4)c(F)c3)ccc2F)c(F)c1 (stereo not drawn) [Example 96]	5.19
COc1cccc(COc2cccc(-c3ccc(Cc4nc5ccc(C(=O)O)cc5n4Cc4ccco4)nc3)c2)c1 [Example 23]	-6.89
Cc1cc(-c2cccc(OCc3ccc(Cl)cc3F)n2)ccc1Cc1nc2ccc(C(=O)O)cc2n1CC1CCCO1 (stereo not drawn) [Example 69]	-14.7

I am curious: what inhibition at 2.5 h, 10 µM value has been reported for O=C(O)c1ccc2nc(Cc3ccc(-c4cccc(OCc5ccc(C(F)(F)F)cc5)n4)cc3F)n(CC3CCCO3)c2c1 (stereo not drawn) [Example 77] ? -70.9

Could you do the same for COCCn1c(Cn2ccc(-c3cccc(OCc4ccc(C#N)cc4F)c3)cc2=O)nc2ccc(C(=O)O)cc21 [Example 104] , please? 8.69

Repeat for the following molecule: O=C(O)c1ccc2nc(Cc3ccc(-c4cccc(OCc5ccc(F)cc5F)n4)c(F)c3)n(C[C@@H]3CCO3)c2c1 [Example 119] 4.13

For O=C(O)c1ccc2nc(Cc3ccc(-c4cccc(OCc5ccc(Cl)cc5F)c4)c(F)c3)n(Cc3cnco3)c2c1 [Example 33] then? -9.08

Also, COCCn1c(Cc2ccc(-c3cccc(OCc4ccc(C#N)cc4F)c3)cc2)nc2ccc(C(=O)O)cc21 [Example 21] please. -9.94

Same again, this time with O=C(O)c1ccc2nc(Cc3ccc(-c4cccc(OCc5ccc(Cl)cc5F)n4)cc3F)n(Cc3ccco3)c2c1 [Example 13] -7.76

Please give the result for N#Cc1ccc(COc2cccc(-c3ccc(Cc4nc5ccc(C(=O)O)cc5n4Cc4ccco4)c(F)c3)n2)c(F)c1 [Example 19] too. 1.8
